Hi there, I'd appreciate the recorded phosphorylation enrichment for every entry that follows.
system-tested: Hck (UniProt P08631)
Sequence (P08631 whole entry, looked up): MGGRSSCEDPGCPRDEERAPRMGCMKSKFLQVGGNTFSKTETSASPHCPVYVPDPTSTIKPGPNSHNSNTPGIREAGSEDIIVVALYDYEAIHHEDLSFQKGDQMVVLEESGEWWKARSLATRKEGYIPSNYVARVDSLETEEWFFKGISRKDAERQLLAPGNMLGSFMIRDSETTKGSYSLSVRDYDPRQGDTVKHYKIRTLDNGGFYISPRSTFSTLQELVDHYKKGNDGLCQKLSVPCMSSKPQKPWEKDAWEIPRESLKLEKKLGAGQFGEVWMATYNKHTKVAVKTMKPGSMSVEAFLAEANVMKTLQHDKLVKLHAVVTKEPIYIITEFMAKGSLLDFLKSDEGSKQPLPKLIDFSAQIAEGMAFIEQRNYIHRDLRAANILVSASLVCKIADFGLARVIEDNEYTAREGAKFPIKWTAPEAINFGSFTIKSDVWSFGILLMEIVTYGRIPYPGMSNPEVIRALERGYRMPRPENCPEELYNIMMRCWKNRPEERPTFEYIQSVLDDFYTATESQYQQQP
assay-explanation: phosphorylation enrichment, bacterial display (enrichment ratio); higher = better substrate or ligand; peptides without Tyr show the background

Quick check: phosphorylation enrichment on Hck (UniProt P08631), item RIFDYYSARKA [STOX1_Y858] ?
0.792

Entry to check: DNEFAYLKAII [HNF4A_Y288_YF]
0.407

How about this sequence: KHMADYPDFKF [SOX11_Y113_YF]
0.391

* * *

system-tested: EPHB1 (UniProt P54762)
Sequence (P54762 whole entry, looked up): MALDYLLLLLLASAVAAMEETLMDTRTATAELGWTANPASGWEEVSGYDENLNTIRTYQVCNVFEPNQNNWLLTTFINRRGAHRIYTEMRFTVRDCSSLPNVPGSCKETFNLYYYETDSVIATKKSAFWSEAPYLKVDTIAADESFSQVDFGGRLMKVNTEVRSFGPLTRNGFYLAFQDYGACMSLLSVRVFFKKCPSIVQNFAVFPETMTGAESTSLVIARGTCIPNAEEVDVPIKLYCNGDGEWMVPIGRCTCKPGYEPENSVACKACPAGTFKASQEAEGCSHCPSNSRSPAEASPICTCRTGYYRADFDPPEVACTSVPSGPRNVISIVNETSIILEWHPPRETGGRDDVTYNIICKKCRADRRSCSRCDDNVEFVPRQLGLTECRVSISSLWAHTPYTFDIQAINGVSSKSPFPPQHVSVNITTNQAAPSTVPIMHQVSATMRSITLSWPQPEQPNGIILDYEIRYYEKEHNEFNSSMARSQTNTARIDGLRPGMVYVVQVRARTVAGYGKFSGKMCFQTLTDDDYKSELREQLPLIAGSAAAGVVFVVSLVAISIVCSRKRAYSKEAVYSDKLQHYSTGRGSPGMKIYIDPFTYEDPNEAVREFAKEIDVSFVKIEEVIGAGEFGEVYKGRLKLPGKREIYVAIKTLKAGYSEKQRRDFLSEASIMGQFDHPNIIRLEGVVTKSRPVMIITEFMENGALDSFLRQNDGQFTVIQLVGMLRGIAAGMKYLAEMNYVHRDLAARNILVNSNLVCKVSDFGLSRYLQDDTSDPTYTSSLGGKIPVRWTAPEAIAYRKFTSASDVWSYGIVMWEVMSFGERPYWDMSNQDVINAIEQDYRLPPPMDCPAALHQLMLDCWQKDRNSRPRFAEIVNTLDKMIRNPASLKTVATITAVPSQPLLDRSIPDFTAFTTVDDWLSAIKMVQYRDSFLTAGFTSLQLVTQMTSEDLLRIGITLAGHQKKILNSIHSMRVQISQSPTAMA
assay-explanation: phosphorylation enrichment, bacterial display (enrichment ratio); higher = better substrate or ligand; peptides without Tyr show the background
readout-kind: phosphorylation enrichment
Could you respond with only the numeric value?

Could you share which phosphorylation enrichment value was measured for PYADPYYDYEI [ZC3H18_Y371] ?
5.6

PSSNLYYRWLT [CNGA3_Y168] , same question.
3.17

Now the sequence FDKPVYQKTTE [LDLR_Y828_N825K]
0.452

Next up: RAQIRYAQEHD [NSD1_Y1987_R1984Q]
0.458

Cool, now GDEVEYMSVSF [GCLC_Y53_L55S]
0.561

* * *

system-tested: FGFR1 (UniProt P11362)
Sequence (P11362 whole entry, looked up): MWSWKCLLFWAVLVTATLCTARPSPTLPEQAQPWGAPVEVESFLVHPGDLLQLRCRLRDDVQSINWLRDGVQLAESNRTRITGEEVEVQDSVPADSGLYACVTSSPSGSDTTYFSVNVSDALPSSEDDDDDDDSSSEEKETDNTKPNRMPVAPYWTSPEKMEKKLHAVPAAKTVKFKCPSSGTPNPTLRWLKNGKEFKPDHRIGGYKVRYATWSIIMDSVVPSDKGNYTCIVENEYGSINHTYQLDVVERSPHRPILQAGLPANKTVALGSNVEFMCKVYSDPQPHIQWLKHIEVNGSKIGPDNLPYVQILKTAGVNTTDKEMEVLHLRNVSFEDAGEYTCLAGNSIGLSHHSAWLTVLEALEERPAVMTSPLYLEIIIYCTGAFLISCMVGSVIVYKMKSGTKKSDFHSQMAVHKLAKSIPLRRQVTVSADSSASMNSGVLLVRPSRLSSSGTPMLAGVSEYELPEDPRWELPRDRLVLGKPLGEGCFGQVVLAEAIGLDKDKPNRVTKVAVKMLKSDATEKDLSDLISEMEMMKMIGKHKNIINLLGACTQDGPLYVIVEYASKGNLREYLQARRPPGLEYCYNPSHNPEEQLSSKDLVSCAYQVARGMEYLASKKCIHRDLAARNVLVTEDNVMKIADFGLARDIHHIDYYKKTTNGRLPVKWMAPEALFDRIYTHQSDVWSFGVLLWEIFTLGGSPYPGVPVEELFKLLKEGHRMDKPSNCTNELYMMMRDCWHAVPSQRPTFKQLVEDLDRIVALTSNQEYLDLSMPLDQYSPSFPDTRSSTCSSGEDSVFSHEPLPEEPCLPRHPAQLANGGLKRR
assay-explanation: phosphorylation enrichment, bacterial display (enrichment ratio); higher = better substrate or ligand; peptides without Tyr show the background
phosphorylation enrichment below 0.5 gives NOT MET; phosphorylation enrichment at or above it gives MET.

Reported phosphorylation enrichment reaches at least 0.5 for YRVAGYETQGG [TIA1_Y383] ?
NOT MET

Same question for FDDDDYDMDFV [BLM_Y296_T298M] please.
MET

Let us now turn to IGDENYGEGSS [ACO2_Y665]
MET

Field entry: NYNPNYCFAGK [ALK_Y1096_D1091N]
MET

Also, ASMAKYFASEI [ACADSB_Y372_YF] please.
MET

Please give the result for FMYKVYSDPQP [FGFR1_Y280_C277Y] too.
NOT MET

Same question, IYETDYYRKGG [INSR_Y1189] this time
NOT MET

Another: GRSTFYWPSPR [GAGE12J_Y10_R13S_YF]
MET

Let us now turn to NVVQEYERVII [NPHS2_Y131_K126N]
MET

How about this sequence: GESQGYDIMEA [MSH2_Y863_P868A]
MET

Queued: EQSNPYMVLDI [ROCK2_Y1197]
MET

* * *

Please provide measured phosphorylation enrichment for the entries that follow.
Tested on: AncSZ
assay-explanation: phosphorylation enrichment, bacterial display (enrichment ratio); higher = better substrate or ligand; peptides without Tyr show the background
Respond with the number and no other words.

Give AncSZ phosphorylation enrichment for IHFPPYTDWNQ [ALDH3B2_Y365_YF]
1.01

Also CTTIQYNFMCN [TP53_Y234_H233Q_YF] ?
0.969

Repeat with RIFDYYSARKA [STOX1_Y858]
0.959

* * *

Test system: AncSZ
assay-explanation: phosphorylation enrichment, bacterial display (enrichment ratio); higher = better substrate or ligand; peptides without Tyr show the background
Rule: phosphorylation enrichment of 0.9 or more gives criterion met; anything lower gives criterion not met.

Does phosphorylation enrichment meet or surpass 0.9 for RFGKVYKAHLF [ROR2_Y488_G490A] ?
criterion not met

Now give it for VVAHQYSFAPD [TNS3_Y601] too.
criterion not met

Another sequence to check: ALKKPYSVLYK [RPF2_Y59_G60S]
criterion not met

Can you handle GTFVIYVRFGG [FLNB_Y1687_YF] next?
criterion met

* * *

For each record, write down the corresponding SH2 binding enrichment.
system-tested: SHP2-C SH2
assay-explanation: SH2 binding enrichment of the phosphorylated peptide, bacterial display (enrichment ratio); higher = better substrate or ligand; peptides without Tyr show the background

What value of measured SH2 binding enrichment is listed for DSYWSYCNAVA [SLC20A2_Y436_S434W] ?
0.649

For SLMNQYVNKKF [RAB7A_Y28] then?
0.697

DGQVNYEGFVQ [CALM1_Y139_E141G] ?
0.467

Same question, IMAFFYMCDSA [CASD1_Y382_R386S_YF] this time
0.725

Next: QKPLGYFRVNL [GALE_Y104_D103G_YF]
1.36

Next up: QITQVCGFFDE [PPP2CA_Y127_Y127C_YF]
0.587

Try this sequence next: IKETHYMVDKC
0.68

Next: AASTDYYKRGD [PDHA1_Y242]
0.593

// query: YLEEEYVKAVG [TF_Y674_G671E]
0.685

Now consider AKKKMYSRKTK [AGXT_Y231] .
0.488

Further, for CTTILYNFMCN [TP53_Y234_H233L_YF] ?
2.2

And for ISRVLYPNDNF [PYGM_Y281] ?
0.626

Please give the result for EFLQKYKGFKI [SYNE1_Y6953_YF] too.
0.732

Note, next up: YDDGKYVYVVT [RPS6KA3_Y488]
0.531

GLRFGYGGLGG [KRTAP20-2_Y15_V17G_YF] , same question.
0.612

Cool, now DEDYLYREELA [POR_Y575]
0.881

Then LTKQEYDEAGP [ACTA1_Y364_I359L] ?
0.874

* * *

system-tested: SHP2-C SH2
assay-explanation: SH2 binding enrichment of the phosphorylated peptide, bacterial display (enrichment ratio); higher = better substrate or ligand; peptides without Tyr show the background
Exercise: state measured SH2 binding enrichment for each of the sequences provided.
Provide a numeric answer; units are not to be included.

Fill in the blank: the reported SH2 binding enrichment of CDGKEYDPVEA [MAPRE2_Y167_Y162C] is ____.
0.891

Also RLGLQYSQGLV [EIF2B4_Y214] ?
0.553

Again, but for EYKDAYKFAAD [BRDT_Y335]
0.572

Further, for IVKAFYVHARA [AIPL1_Y268_R270H_YF] ?
1.53

Repeat for the following sequence: VGTKRYMAPKV [ACVRL1_Y375_E379K]
1.44

Now consider IQSAKYDMAED [TTC21B_Y1213] .
0.679

Okay, and GFVEDYRPPFF [ACVRL1_Y421_I417F_YF] ?
0.675

Repeat with KIKGRYEKCEP [KRT26_Y119_W118R]
1.9

# iterate: TQKLAYMELQQ [CENPF_Y700]
1.17

* * *

Record form. Attribute: SH2 binding enrichment. Fill in for each entry.
system-tested: SHP2-C SH2
assay-explanation: SH2 binding enrichment of the phosphorylated peptide, bacterial display (enrichment ratio); higher = better substrate or ligand; peptides without Tyr show the background

Please provide the recorded SH2 binding enrichment for KAVLHYKHQNQ [MTOR_Y1804_E1799K] , tested on SHP2-C SH2.
0.734

What would you report for CTTIHNNFMCN [TP53_Y234_Y234N_YF] ?
1.32

LKKKQYTSIHH [APP_Y728] , same question.
2.63

Consider next the sequence CPYNLYAEQLS [HGD_Y40] in the same way.
0.737

Can you check EAGKVYLKAAM [CBFB_Y96_P100A] next?
0.781

Please do the same for PRIHSYRGHLW [VHL_Y112_R107P] as well.
1.86

Also check CTTTHYNFMCN [TP53_Y234_I232T_YF]
1.79

Record: KKHIPYREHKS [CSNK1G1_Y205]
2.1

Check VYSIDYYRVGG [NTRK2_Y706_T704I] too.
1.61

Note, next up: HTVVSYAEVRA [CLOCK_Y378]
27.9

Param item: GFPVRYTDVSN [DNMT3B_Y815_H814R]
1.38

Check RLSVDYSKKSK [TUBA3E_Y161] too.
0.526

FGSRLYKFAFK [FANCD2_Y458_L456R_YF] , same question.
0.583

Item: MANYMYKAGPS [MAML2_Y515]
0.787

Entry to check: DLNATYRTIQG [U2SURP_Y634]
0.814

Another sequence to check: GHLFAYDWISI [BEST1_Y227_YF]
1.16

Try this sequence too: KIVFVYVKKRS [DNAI2_Y7_E2K_YF]
1.13

Here is the next sequence: ADEQIYWQIAA [CSKtide_2014]
0.515

Would you mind doing SCRSKYVGLWG [KCNQ1_Y184_G179S] as well?
0.721

Now consider QEALEYFMKQM [PIK3CA_Y1038] .
0.698

Repeat with NVLPEYKLQAP [KCNH2_Y388_D383N]
0.564

Same question for EDGCIYPATIA [SMN1_Y109] please.
0.671

* * *

system-tested: SHP2-C SH2;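 further: peptide library displayed on the E. coli surface as eCPX fusions, selected cells deep-sequenced, score is each peptide's frequency after selection divided by its frequency in the input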
assay-explanation: SH2 binding enrichment of the phosphorylated peptide, bacterial display (enrichment ratio); higher = better substrate or ligand; peptides without Tyr show the background
readout-kind: SH2 binding enrichment
Note: the reply should be a number with no unit written.

May I ask what SH2 binding enrichment has been recorded for NTQRPHYKGGG [TYROBP_Y111_Y111H] ?
1.77

And what about the sequence GENTMYAQVFN [LY9_Y603] ?
10.1

What do we get for LPKEQYLFTKE [AFG3L2_Y614_YF] ?
1.06

Lookup GGQSVYHVHLH [HINT1_Y109]
0.904

One more sequence: ENPLDYGSAWA [AR_Y395]
0.806

Input YKEDPYLVVNP [MCM6_Y810_E806K]
0.538

How about this sequence: FQGRRYDCDCD [CRYGS_Y21]
0.687

And ERFSYYGMKAV [SLC15A2_Y61] ?
0.85

Could you do the same for STILLYHIMAW [GPR143_Y157] , please?
0.899

Another sequence to check: QEIATYRRLLE [KRT14_Y415]
0.58

Moving on to the next sequence: HHTNEYEYDEL [TGM1_Y134_D132N]
0.676

Same read-out for LPVHFYGHVEH [PYGM_Y204] ?
1.01

Next: KSFDMYSGDVM [FAM3D_Y122_A118S]
0.674

Can you handle MDNQEYKDAFT [BRDT_Y331_K336T_YF] next?
0.69

Subsequent entry: EDASEYFENFI [PARP4_Y214_F215Y_YF]
0.544

Here is the next sequence: EHEALYLEADL [CENPF_Y1920]
0.56

Same lookup for SASRSYSRSRS [SRRM4_Y549] , please.
0.451

Now try VTGWGYRKLRE [F11_Y521_D526E] .
0.375

Now consider RSSKMYPKTRS [LPL_Y329_L330P] .
0.556

Note, next up: GIVEEYQLPFF [BMPR1A_Y453_YF]
0.629

Continue with FADIAYIFRHG [PAH_Y166_N167I_YF]
0.796

Continue with SYCYRYRCAAR [SUMF1_Y344]
0.608

Continue with ALKKPYSVLYK [RPF2_Y59_G60S]
1.65

The measurements presented in this section are drawn from the supplement of paper PMC10065799.
